Experiment: yeast display, Sf9 membrane polyspecificity reagent, FACS + sequencing; frameworks hold sequencing errors
assayReadout: polyreactivity (PSR sort gate)

Use these answered entries as a reference point.
INSERT INTO assay_data (monomersequence, assayreadout, result) VALUES
  ('QVQLVESVGGLVQAGGSLRLSCAASGRTFSGNAMGWYIQAPGKERELVAGISTSGGSTYYADSVKGRFTISRDNSKNTVYLQMNSLKPEDTAVYYCNARSRYRYYRSFGGDYWGQGTQVTVSS', 'polyreactivity (PSR sort gate)', 'high polyreactivity'),
  ('QFQLVESGGGLVQAGGSLRLSCAASGRILSIYAMGWYSQAPGKESEMVAGITGGGRTHSADSVKGRFTISRDNAKNTVYLQMYSLKPEDTAVYSCSSLWRYQYRSKLSYYYWGQGTQVTVSS', 'polyreactivity (PSR sort gate)', 'high polyreactivity'),
  ('QVQLVESGGGLVQAGGSLRLSCAASGRTFDVNAMGWYRQAPGKERELVAAIRISGGSTYYADSVKGRFTISRDNAKITVYLQMNSLKPEDTAVYYCAAYERRYRNAYDYWGQGTQVTVSS', 'polyreactivity (PSR sort gate)', 'high polyreactivity'),
  ('QVQLVESGGGLVQAGGSLRLSCAASGITFKSYAMGWYRQAPGKERELVAAISRRGGSTYYADSVKGRFTISRDNAKNTVYLQMNSLKPEDTAVYYCAADSGREPKGPSRLTYWGQGTQVTVSS', 'polyreactivity (PSR sort gate)', 'high polyreactivity'),
  ('QVQLVESGGGLVQAGGSLRLSCAASGRIFDIYTMGWYRQAPGKERELVASITKRGGSTYYADSVKGRFTISRDNAKNTVYLQMKSLKPEDTAVYFCNVAGKQKPYYVTTRLDYWGQGTQVTVSS', 'polyreactivity (PSR sort gate)', 'high polyreactivity'),
  ('QVQLVESGGGLVQAGGSLRLSCAASGFTFPIYAMGWYRQAPGKEREFVAAITRSGVSTYYADSVKGRFTISRDNAKNTVYLQMNSLKPEDTAVYYCAARYKGRAFWMDYWGQGTQVTVSS', 'polyreactivity (PSR sort gate)', 'high polyreactivity');

Q. Find the recorded polyreactivity (PSR sort gate) belonging to QVQLVESGGGLVQAGGSLRLSCADSGRTIYRNGMGWYRKAPGKEREFVAAINYRGGSTNYADSVKWRFTISRDKAKNTVYLQMNSLKPEDTAVYYCATRIFRAALRFDYWGQGTQVTVSS and report it.
A. high polyreactivity

Q. Find the recorded polyreactivity (PSR sort gate) belonging to QVQLEESGGGLFQAGGSLRLSCAASGRIFYGYAMGWSRQAPGKEMELVAAISSSGGSTYYADSVKGRFTISRDNAKNTVYLQRNSLKPEDTAVYYCNAKRYRPGYWYDYWGQGTQVTVSS and report it.
A. high polyreactivity

Q. Find the recorded polyreactivity (PSR sort gate) belonging to QVQLVESGGGLVQAGGSLRLSCAASGRIFDPYAMGWYRQAPGKERELVASNSWSGGRTYYADSVKGRFTISRDNAKNTVYLQMNSLKPEDTAVYYCAKVRAYTRLGLTVSMDYWGQGTQVTVSS and report it.
A. high polyreactivity

Q. Find the recorded polyreactivity (PSR sort gate) belonging to QVQLVESGGGLVQAGGSLRLSCAASGSTFYYYAMGWYRQAPGKERELVAAIDTSVDSTYYADSVKGRFTISRDNAKNTVYLQMNSLKPEDTAVYYCNARSRTGYTNRMYYWGQGTQVTVSS and report it.
A. high polyreactivity
